- assay.system: PI3Kγ (p110γ) Recombinant Human Protein (Homo sapiens (Human))
- Sequence (P48736 whole entry): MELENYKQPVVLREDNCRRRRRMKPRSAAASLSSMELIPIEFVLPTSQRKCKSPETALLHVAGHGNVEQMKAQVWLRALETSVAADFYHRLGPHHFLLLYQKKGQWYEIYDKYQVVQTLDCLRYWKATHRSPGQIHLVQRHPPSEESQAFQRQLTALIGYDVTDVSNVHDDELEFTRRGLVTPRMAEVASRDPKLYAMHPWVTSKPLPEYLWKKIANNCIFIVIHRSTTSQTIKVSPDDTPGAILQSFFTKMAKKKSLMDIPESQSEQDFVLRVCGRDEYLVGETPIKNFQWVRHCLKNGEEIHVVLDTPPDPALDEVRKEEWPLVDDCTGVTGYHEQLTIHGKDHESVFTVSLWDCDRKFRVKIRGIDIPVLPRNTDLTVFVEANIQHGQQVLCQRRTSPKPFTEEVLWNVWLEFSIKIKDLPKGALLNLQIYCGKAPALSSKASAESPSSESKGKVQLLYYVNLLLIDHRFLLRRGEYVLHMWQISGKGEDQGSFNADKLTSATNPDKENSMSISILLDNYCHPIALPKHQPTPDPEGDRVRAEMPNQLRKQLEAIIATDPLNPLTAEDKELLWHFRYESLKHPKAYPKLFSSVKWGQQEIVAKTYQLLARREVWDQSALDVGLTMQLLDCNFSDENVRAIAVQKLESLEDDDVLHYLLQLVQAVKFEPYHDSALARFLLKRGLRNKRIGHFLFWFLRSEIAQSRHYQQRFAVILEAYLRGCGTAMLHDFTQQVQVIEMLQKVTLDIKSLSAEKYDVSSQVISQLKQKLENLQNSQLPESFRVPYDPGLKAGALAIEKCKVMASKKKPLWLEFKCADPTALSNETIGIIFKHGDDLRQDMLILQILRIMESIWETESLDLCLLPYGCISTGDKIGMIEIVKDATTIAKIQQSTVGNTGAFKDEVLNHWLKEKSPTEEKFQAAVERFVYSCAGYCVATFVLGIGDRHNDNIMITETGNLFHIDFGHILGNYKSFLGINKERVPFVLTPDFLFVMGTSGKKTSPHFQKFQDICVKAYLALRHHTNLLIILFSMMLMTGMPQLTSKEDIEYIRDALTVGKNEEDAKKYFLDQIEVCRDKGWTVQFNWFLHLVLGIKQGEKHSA
- assay: PI3K-γ scintillation proximity assay
- study.conditions: 2 μM ATP, 20 μM PIP2
Counter-ions that a name gives are not always drawn.
readout.name: IC50

# return recorded IC50 for input CC(NC(=O)c1c(N)nn2cccnc12)c1cc(Cl)c2c(Cl)ncn2c1N1CCC(C#N)CC1 (racemic) [Example 163, trifluoroacetate salt]
< 100 nM

Report IC50, nothing else, for this compound: C[C@H](NC(=O)c1c(N)nn2cccnc12)c1cc(Cl)c2c(Cl)ncn2c1N1CCNS(=O)(=O)CC1 [Example 160, trifluoroacetate salt]
< 100 nM

For C#Cc1nc(C)n2c(-c3ccccc3)c(C(C)NC(=O)c3c(N)nn4cccnc34)cc(Cl)c12 (racemic) , write its IC50.
< 100 nM
